Target: M4 muscarinic receptor (Homo sapiens, UniProt P08173)
Construct: expressed in transfected cells; host or cells: CHO (M4-CHO)
Sequence (P08173 1-479): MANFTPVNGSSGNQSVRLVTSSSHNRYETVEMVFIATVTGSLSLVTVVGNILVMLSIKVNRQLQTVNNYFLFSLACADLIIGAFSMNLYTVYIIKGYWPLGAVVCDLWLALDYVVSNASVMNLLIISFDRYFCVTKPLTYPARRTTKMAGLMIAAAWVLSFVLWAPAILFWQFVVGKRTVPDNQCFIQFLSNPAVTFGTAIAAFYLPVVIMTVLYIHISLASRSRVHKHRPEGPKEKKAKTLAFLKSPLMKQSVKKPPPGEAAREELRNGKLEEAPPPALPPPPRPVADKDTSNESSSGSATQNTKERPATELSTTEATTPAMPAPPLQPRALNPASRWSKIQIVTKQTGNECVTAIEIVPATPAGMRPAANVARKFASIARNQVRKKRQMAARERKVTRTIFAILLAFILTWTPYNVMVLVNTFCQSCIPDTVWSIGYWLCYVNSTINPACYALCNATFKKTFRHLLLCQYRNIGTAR
Test: Functional mobilization of intracellular calcium (FLIPR) in M4-CHO cells
Type: cell-based
Conditions: Table 4; 100% efficacy is the maximum response obtained with the Carbachol control
Give Emax for every item shown.

[[record]]
molecule = "CCCC(=O)N[C@H]1CC2(CCN(C[C@@H]3C[C@H]4C=CC3C4)CC2)c2ccccc21 [compound 1016]"
result = "25 to 100%"

[[record]]
molecule = "O=C(O)C1CC2(CCN(CC3CCCCC3)CC2)c2ccccc21 (centres unmarked) [compound 803]"
result = "< 25%"

[[record]]
molecule = "CC(=O)N[C@@H]1CCC2(CCN(C3CCCCCC3)CC2)c2ccccc21 [compound 666]"
result = "25 to 100%"

[[record]]
molecule = "CC(=O)N1CC2(CCN(C3CCN(c4nc(C)ns4)CC3)CC2)c2cc(F)ccc21 [compound 943]"
result = "25 to 100%"


// each listed molecule needs a value for Emax
1. CN(C)C(=O)N1CC2(CCN(C3CCN(C(=O)[C@H]4CCCO4)CC3)CC2)c2cc(F)ccc21 [compound 520]
2. CCOC(=O)N1CCC(N2CCC3(CC2)CN(C(C)=O)c2ccc(C(F)(F)F)cc23)CC1 [compound 603]
3. CCO/N=C1\CC2(CCN([C@@H]3C[C@@H]4CC[C@@H]3C4)CC2)c2cc(Cl)ccc21 [compound 865]
4. CC#CC(C)OC(=O)N1CCC(N2CCC3(CC2)CN(C(C)=O)c2ccccc23)CC1 (centres unmarked) [compound 589]

Data returned:
1: < 25%; 2: 25 to 100%; 3: 25 to 100%; 4: < 25%

====

Target: M1 muscarinic receptor (Homo sapiens, UniProt P11229)
Construct: expressed in transfected cells; host or cells: CHO (M1-CHO)
Sequence (P11229 whole entry): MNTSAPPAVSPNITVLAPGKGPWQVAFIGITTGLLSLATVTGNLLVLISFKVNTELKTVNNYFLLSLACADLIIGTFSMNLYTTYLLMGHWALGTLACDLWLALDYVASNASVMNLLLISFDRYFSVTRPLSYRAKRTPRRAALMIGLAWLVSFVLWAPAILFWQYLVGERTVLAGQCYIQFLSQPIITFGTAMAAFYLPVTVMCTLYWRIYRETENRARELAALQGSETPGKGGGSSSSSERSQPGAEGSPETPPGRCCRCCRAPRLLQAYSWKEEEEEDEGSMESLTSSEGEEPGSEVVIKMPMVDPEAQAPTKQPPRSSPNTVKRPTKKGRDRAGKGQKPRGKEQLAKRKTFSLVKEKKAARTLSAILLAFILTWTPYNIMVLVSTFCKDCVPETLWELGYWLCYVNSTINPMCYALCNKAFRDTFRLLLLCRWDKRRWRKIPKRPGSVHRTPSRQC
Assay: Functional mobilization of intracellular calcium (FLIPR) in M1-CHO cells
Format: cell-based
Conditions: M1 receptor, calcium mobilization; read-out: M1 Efficacy
Procedure: Functional Mobilization of Intracellular Calcium to Determine Muscarinic Receptor Activity: […] Compounds are prepared at a 2× fold concentration in a 96-well plate (round bottom, Costar Corning cat# 3656), by reconstituting the pre-spotted compounds in bath 1 containing 1 mM probenecid. […] In both assay modes, the fluorescence is recorded for 60 sec (excitation wavelength is […] and emission wavelength 540 nm) using the FLIPR 3 instrument. […]
measured-attribute: Emax

Solved entries:
[[record]]
compound = "CCOC(=O)N1CCC(N2CCC3(CC2)CN(C(=O)C2CCCCC2)c2ccc(F)cc23)CC1"
result = "< 65%"

[[record]]
compound = "CCNC(=O)N1C2CCC1CC(N1CCC3(CC1)COc1ccc(F)cc13)C2 (centres unmarked)"
result = "65 to 85%"

[[record]]
compound = "COCCOC(=O)N1CC2(CCN(C3CC4CCC(C3)N4C(=O)O[C@@H]3CCOC3)CC2)c2cc(F)ccc21 (some centres unmarked)"
result = "65 to 85%"

[[record]]
compound = "CCOC(=O)N1CCC(CN2CCC3(CC2)C[C@H](NC(C)=O)c2ccccc23)CC1"
result = "65 to 85%"

[[record]]
compound = "O=C(C1CC1)N1CC2(CCN(C3CC4CCC(C3)N4C(=O)O[C@H]3CCOC3)CC2)c2cc(F)ccc21 (some centres unmarked)"
result = "65 to 85%"


Hello, I would appreciate it if you could give Emax for each entry below.
1. Fc1ccc2c(c1)C1(CCN([C@@H]3C[C@@H]4CC[C@H]3C4)CC1)CO2
2. Clc1ccc2c(c1)C1(CCN(C3CC4CCC(C4)C3)CC1)CN2 (centres unmarked)
3. COCCOC(=O)N1C2CCC1CC(N1CCC3(CC1)CN(C(=O)O[C@@H]1CCOC1)c1ccc(F)cc13)C2 (some centres unmarked)

Data returned:
65 to 85%
65 to 85%
65 to 85%

====

Target: M4 muscarinic receptor (Homo sapiens)
Construct: expressed in transfected cells; host or cells: CHO (M4-CHO)
Sequence (P08173 1-479): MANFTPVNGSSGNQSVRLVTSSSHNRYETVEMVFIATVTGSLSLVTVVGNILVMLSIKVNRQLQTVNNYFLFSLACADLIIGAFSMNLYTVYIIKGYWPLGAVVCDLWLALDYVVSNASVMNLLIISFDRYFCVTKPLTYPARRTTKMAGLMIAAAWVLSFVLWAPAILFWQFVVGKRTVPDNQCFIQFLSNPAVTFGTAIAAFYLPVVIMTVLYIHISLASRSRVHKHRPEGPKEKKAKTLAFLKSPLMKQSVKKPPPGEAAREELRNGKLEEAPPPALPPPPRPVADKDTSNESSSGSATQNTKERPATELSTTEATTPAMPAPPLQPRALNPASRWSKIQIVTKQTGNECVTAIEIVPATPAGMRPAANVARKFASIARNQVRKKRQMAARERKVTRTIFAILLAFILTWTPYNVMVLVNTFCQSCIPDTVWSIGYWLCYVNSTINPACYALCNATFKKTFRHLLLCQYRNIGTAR
Assay: Functional mobilization of intracellular calcium (FLIPR) in M4-CHO cells
Format: cell-based
Settings: M4 receptor, calcium mobilization; read-out: M4 Efficacy
measured-attribute: Emax

Below are worked cases with known answers.
[[record]]
molecule = "COCCOC(=O)N1C2CCC1CC(N1CCC3(CC1)C(=O)Nc1ccccc13)C2 (stereo not shown)"
measured_attribute = "Emax"
result = "< 65%"

[[record]]
molecule = "CCOC(=O)N1C2CCC1CC(N1CCC3(CC1)CN(C(=O)c1cc(C)n(C)n1)c1ccc(F)cc13)C2 (stereo not shown)"
measured_attribute = "Emax"
result = "> 85%"

[[record]]
molecule = "Fc1ccc2c(c1)C1(CCN(C3CCCCC3)CC1)CO2"
measured_attribute = "Emax"
result = "> 85%"


Next molecule, Emax to be filled in.
Summary for this molecule, CC(C)OC(=O)N1C2CCC1CC(N1CCC3(CC1)C(=O)Nc1ccccc13)C2 (stereo not shown) : Emax is > 85%

====

Kindly state Emax for each of the entries shown.
Biological target: M4 muscarinic receptor (Homo sapiens, UniProt P08173)
Construct: expressed in transfected cells; host or cells: CHO (M4-CHO)
Assay: Functional mobilization of intracellular calcium (FLIPR) in M4-CHO cells
Assay type: cell-based
Details: M4 receptor, calcium mobilization; read-out: M4 Efficacy

Here are 3 molecules together with their reported answers.
[[record]]
molecule = "CCOC(=O)N1CCC(N2CCC3(CC2)CN(C(=O)C(C)(C)C)c2ccc(F)cc23)CC1"
result = "65 to 85%"

[[record]]
molecule = "COC(=O)N1CC2(CCN(C3CC4CCC(C3)N4C(=O)O[C@H]3CCOC3)CC2)c2cc(F)ccc21 (stereo partly shown)"
result = "< 65%"

[[record]]
molecule = "CCCOC(=O)N1CCC(N2CCC3(CC2)CN(C(=O)N(C)C)c2ccc(F)cc23)CC1"
result = "< 65%"


Note to self: Emax recorded for CC(=O)N(C)[C@@H]1CC2(CCN(C[C@H]3C[C@H]4CC[C@H]3C4)CC2)c2ccccc21 was < 65%

====

Target: M4 muscarinic receptor (Homo sapiens, UniProt P08173)
Construct: expressed in transfected cells; host or cells: CHO (M4-CHO)
Assay: Functional mobilization of intracellular calcium (FLIPR) in M4-CHO cells
Type: cell-based
Details: Table 4; 100% efficacy is the maximum response obtained with the Carbachol control
measured-attribute: Emax

Field: example entries. Status: answers known.
[[record]]
molecule = "O=C(O)C1CC2(CCN(CC3CCCC3)CC2)c2ccccc21 (centres unmarked)"
measured_attribute = "Emax"
result = "< 25%"

[[record]]
molecule = "CN(C)C(=O)N1CC2(CCN(C3CCN(C(=O)c4cnccn4)CC3)CC2)c2cc(F)ccc21"
measured_attribute = "Emax"
result = "< 25%"

[[record]]
molecule = "CC#CC(C)OC(=O)N1CCC(N2CCC3(CC2)CN(C(=O)N(C)C)c2ccc(F)cc23)CC1 (centres unmarked)"
measured_attribute = "Emax"
result = "25 to 100%"

[[record]]
molecule = "CCNC(=O)N1CC2(CCN(C3CCN(C(=O)OCC)CC3)CC2)c2ccccc21"
measured_attribute = "Emax"
result = "25 to 100%"

[[record]]
molecule = "CS(=O)(=O)N[C@H]1CCC2(CCN(CC3CC4C=CC3C4)CC2)c2ccccc21 (some centres unmarked)"
measured_attribute = "Emax"
result = "25 to 100%"


# per-item lookup of Emax; items listed below
1. CCOC(=O)N1CCC(N2CCC3(CC2)CN(c2ccccc2F)c2ccc(F)cc23)CC1
2. CCOC(=O)N1CCC(N2CCC3(CC2)CN(c2cccnc2)c2ccc(F)cc23)CC1
3. CCOC(=O)N1C2CCC1CC(N1CCC3(CC1)CN(C(C)=O)c1c(F)cc(F)cc13)C2 (centres unmarked)

Data returned:
25 to 100%
25 to 100%
25 to 100%
